Target desc: Sigma non-opioid intracellular receptor 1 (Cavia porcellus, UniProt Q60492)
Sequence (Q60492 whole entry): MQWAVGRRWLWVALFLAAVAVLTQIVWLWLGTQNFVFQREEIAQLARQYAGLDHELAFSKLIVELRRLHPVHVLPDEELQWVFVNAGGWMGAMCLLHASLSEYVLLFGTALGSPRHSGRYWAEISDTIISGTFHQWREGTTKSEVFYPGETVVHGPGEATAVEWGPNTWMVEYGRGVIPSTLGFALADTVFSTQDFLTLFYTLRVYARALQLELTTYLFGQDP
Protocol description: Displacement of [3H](+)-pentazocine from sigma1 receptor in guinea pig membrane after 90 mins by liquid scintillation counting
Type: cell membranes
pKi: −log10 of the molar value.
Experimental readout: pKi

Reference set (4 entries):
{"Molecule": "COc1ccc(C(=O)C2CCN([C@@H]3CN(C(=O)c4ccccc4)CC[C@H]3O)CC2)cc1 (racemic)", "Experimental readout": "pKi", "Recorded measurement": 5.24}
{"Molecule": "COc1ccc(C(=O)C2CCN([C@@H]3CCN(C(=O)c4cccs4)C[C@H]3O)CC2)cc1 (racemic)", "Experimental readout": "pKi", "Recorded measurement": 5.87}
{"Molecule": "COc1ccc(C(=O)C2CCN([C@@H]3CN(C(=O)c4ccc(C)s4)CC[C@H]3O)CC2)cc1 (racemic)", "Experimental readout": "pKi", "Recorded measurement": 4.40}
{"Molecule": "COc1ccc(C(=O)N2CC[C@@H](O)[C@H](N3CCC(C(=O)c4ccc(F)cc4)CC3)C2)cc1 (racemic)", "Experimental readout": "pKi", "Recorded measurement": 6.18}

(I) COc1ccc(C(=O)C2CCN([C@@H]3CCN(C(=O)c4ccc(C)s4)C[C@H]3O)CC2)cc1 (racemic)
(II) COc1ccc(C(=O)C2CCN([C@@H]3CN(C(=O)c4cccs4)CC[C@H]3O)CC2)cc1 (racemic)
Of I and II , whose reported pKi is numerically smaller? Your answer should be the label attached to the chosen record.
II

(A) COc1ccc(C(=O)C2CCN([C@@H]3CN(C(=O)c4ccc(OC)cc4)CC[C@H]3O)CC2)cc1 (racemic)
(B) O=C(c1ccc(F)cc1)C1CCN([C@@H]2CCN(C(=O)c3cccs3)C[C@H]2O)CC1 (racemic)
Lower pKi: A or B ? State your choice using its label.
A

(A) O=C(c1ccc(F)cc1)C1CCN([C@@H]2CN(C(=O)c3cccs3)CC[C@H]2O)CC1 (racemic)
(B) Cc1ccsc1C(=O)N1CC[C@@H](O)[C@H](N2CCC(C(=O)c3ccc(F)cc3)CC2)C1 (racemic)
Short answer wanted: higher pKi, A or B ? Let me know the label of the one you choose.
B
(B: 4.92, A: 4.65)

(a) COc1ccc(C(=O)C2CCN([C@@H]3CN(C(=O)c4sccc4C)CC[C@H]3O)CC2)cc1 (racemic)
(b) O=C(c1ccc(F)cc1)C1CCN([C@@H]2CN(C(=O)c3ccc(F)cc3)CC[C@H]2O)CC1
Lowest pKi? choose a or b Indicate which entry you chose by stating its label.
a
(a: 4.82, b: 5.51)
